Taken from patent US20160263155A1.

- measured_on: chimeric Caspase-9 polypeptide
- Sequence (as listed by the source, change not shown): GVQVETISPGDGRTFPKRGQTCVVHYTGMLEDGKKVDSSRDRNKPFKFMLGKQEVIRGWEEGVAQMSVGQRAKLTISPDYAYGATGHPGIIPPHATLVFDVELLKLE
- assay: Caspase mutant classes and basal activity (Table 3)
- Format: cell-based, human
- cond: class heading of Table 3; ligand IC50
endpoint_name: IC50

1. N405F (protein) GFGDVGALESLRGNADLAYILSMEPCGHCLIINNVNFCRESGLRTRTGSNIDCEKLRRRFSSLHFMVEVKGDLTAKKMVLALLELAQQDHGALDCCVVVILSHGCQASHLQFPGAVYGTDGCPVSVEKIVNIFNGTSCPSLGGKPKLFFIQACGGEQKDHGFEVASTSPEDESPGSNPEPDATPFQEGLRTFDQLDAISSLPTPSDIFVSYSTFPGFVSWRDPKSGSWYVETLDDIFEQWAHSEDLQSLLLRVANAVSVKGIYKQMPGCFFFLRKKLFFKTS: much higher
2. A316G (protein) GFGDVGALESLRGNADLAYILSMEPCGHCLIINNVNFCRESGLRTRTGSNIDCEKLRRRFSSLHFMVEVKGDLTAKKMVLALLELAQQDHGALDCCVVVILSHGCQASHLQFPGAVYGTDGCPVSVEKIVNIFNGTSCPSLGGKPKLFFIQACGGEQKDHGFEVASTSPEDESPGSNPEPDGTPFQEGLRTFDQLDAISSLPTPSDIFVSYSTFPGFVSWRDPKSGSWYVETLDDIFEQWAHSEDLQSLLLRVANAVSVKGIYKQMPGCFNFLRKKLFFKTS: much higher
3. D330A-N405Q (protein) GFGDVGALESLRGNADLAYILSMEPCGHCLIINNVNFCRESGLRTRTGSNIDCEKLRRRFSSLHFMVEVKGDLTAKKMVLALLELAQQDHGALDCCVVVILSHGCQASHLQFPGAVYGTDGCPVSVEKIVNIFNGTSCPSLGGKPKLFFIQACGGEQKDHGFEVASTSPEDESPGSNPEPDATPFQEGLRTFDQLAAISSLPTPSDIFVSYSTFPGFVSWRDPKSGSWYVETLDDIFEQWAHSEDLQSLLLRVANAVSVKGIYKQMPGCFQFLRKKLFFKTS: higher IC50
4. F406A (protein) GFGDVGALESLRGNADLAYILSMEPCGHCLIINNVNFCRESGLRTRTGSNIDCEKLRRRFSSLHFMVEVKGDLTAKKMVLALLELAQQDHGALDCCVVVILSHGCQASHLQFPGAVYGTDGCPVSVEKIVNIFNGTSCPSLGGKPKLFFIQACGGEQKDHGFEVASTSPEDESPGSNPEPDATPFQEGLRTFDQLDAISSLPTPSDIFVSYSTFPGFVSWRDPKSGSWYVETLDDIFEQWAHSEDLQSLLLRVANAVSVKGIYKQMPGCFNALRKKLFFKTS: higher IC50
5. N405A (protein) GFGDVGALESLRGNADLAYILSMEPCGHCLIINNVNFCRESGLRTRTGSNIDCEKLRRRFSSLHFMVEVKGDLTAKKMVLALLELAQQDHGALDCCVVVILSHGCQASHLQFPGAVYGTDGCPVSVEKIVNIFNGTSCPSLGGKPKLFFIQACGGEQKDHGFEVASTSPEDESPGSNPEPDATPFQEGLRTFDQLDAISSLPTPSDIFVSYSTFPGFVSWRDPKSGSWYVETLDDIFEQWAHSEDLQSLLLRVANAVSVKGIYKQMPGCFAFLRKKLFFKTS: Similar
6. T317A (protein) GFGDVGALESLRGNADLAYILSMEPCGHCLIINNVNFCRESGLRTRTGSNIDCEKLRRRFSSLHFMVEVKGDLTAKKMVLALLELAQQDHGALDCCVVVILSHGCQASHLQFPGAVYGTDGCPVSVEKIVNIFNGTSCPSLGGKPKLFFIQACGGEQKDHGFEVASTSPEDESPGSNPEPDAAPFQEGLRTFDQLDAISSLPTPSDIFVSYSTFPGFVSWRDPKSGSWYVETLDDIFEQWAHSEDLQSLLLRVANAVSVKGIYKQMPGCFNFLRKKLFFKTS: higher IC50
7. N405Q-S144A (protein) GFGDVGALEALRGNADLAYILSMEPCGHCLIINNVNFCRESGLRTRTGSNIDCEKLRRRFSSLHFMVEVKGDLTAKKMVLALLELAQQDHGALDCCVVVILSHGCQASHLQFPGAVYGTDGCPVSVEKIVNIFNGTSCPSLGGKPKLFFIQACGGEQKDHGFEVASTSPEDESPGSNPEPDATPFQEGLRTFDQLDAISSLPTPSDIFVSYSTFPGFVSWRDPKSGSWYVETLDDIFEQWAHSEDLQSLLLRVANAVSVKGIYKQMPGCFQFLRKKLFFKTS: higher IC50
8. F319A (protein) GFGDVGALESLRGNADLAYILSMEPCGHCLIINNVNFCRESGLRTRTGSNIDCEKLRRRFSSLHFMVEVKGDLTAKKMVLALLELAQQDHGALDCCVVVILSHGCQASHLQFPGAVYGTDGCPVSVEKIVNIFNGTSCPSLGGKPKLFFIQACGGEQKDHGFEVASTSPEDESPGSNPEPDATPAQEGLRTFDQLDAISSLPTPSDIFVSYSTFPGFVSWRDPKSGSWYVETLDDIFEQWAHSEDLQSLLLRVANAVSVKGIYKQMPGCFNFLRKKLFFKTS: Similar
9. D330A (protein) GFGDVGALESLRGNADLAYILSMEPCGHCLIINNVNFCRESGLRTRTGSNIDCEKLRRRFSSLHFMVEVKGDLTAKKMVLALLELAQQDHGALDCCVVVILSHGCQASHLQFPGAVYGTDGCPVSVEKIVNIFNGTSCPSLGGKPKLFFIQACGGEQKDHGFEVASTSPEDESPGSNPEPDATPFQEGLRTFDQLAAISSLPTPSDIFVSYSTFPGFVSWRDPKSGSWYVETLDDIFEQWAHSEDLQSLLLRVANAVSVKGIYKQMPGCFNFLRKKLFFKTS: higher IC50
